melting point listing for selected molecules.

Observe how each entry below is paired with its result.
molecule	property-name	value
O=C1CCC(Cc2c[nH]c3ncccc23)N1 (stereo unspecified)	melting point	160 to 162 °C
CCn1c(=N)c(-c2c(Cl)cccc2Cl)cc2cnc(SC)nc21	melting point	217 to 219 °C
COc1cc(O)c2c(c1)CC(C(=O)Nc1ccc(CC3SC(=O)NC3=O)cc1)SCC2=O (stereo unspecified)	melting point	131 to 134 °C

Inquiry: For the molecule CC[C@H](C1CC1)n1cc(Cl)nc(N2CCc3cc(Cl)cc(Cl)c32)c1=O , what melting point is on record?
Reply text: 157 to 159 °C

Inquiry: Recorded melting point for CCOc1cc(C(=O)O)cc(N)c1C(=O)c1ccccc1 , please?
Reply text: 230 °C

Inquiry: Value lookup for melting point; key = CC(C)(C)c1ccc(CN=C=S)cc1
Reply text: 44 to 47 °C

Inquiry: Returns the measured melting point for the input molecule. Input: COC1(OC)SC(c2nccs2)=C(C)NC1=O
Reply text: 127 to 128 °C
